Provenance of the data: ChEMBL document CHEMBL3864151

- test.name: Clearance in Sprague-Dawley rat at 2 mg/kg, iv
- Assay type: ADME, organism-based
- stated.conditions: Sprague-Dawley, in vivo
measurement.kind: clearance (mL/min/kg)
A number alone suffices; assume mL/min/kg.

IN: What value of measured clearance is listed for C[C@@H]1CC[C@H](N)CN1c1ccncc1Nc1ncc2ccc(-c3c(F)cccc3F)nn12 ?
OUT: 91.7

IN: Same question, C[C@@H]1C[C@H](N)CN(c2ccncc2Nc2ncc3ccc(-c4ncccc4F)nn23)C1 this time
OUT: 26.7

IN: Same question, N[C@H]1CCCN(c2ccncc2Nc2ncc3ccc(-c4ncccc4F)nn23)C1 this time
OUT: 11.7
